Taken from patent US20040121946A9.

test system: HLA-DR molecules (DR1, DR4w4, DR7, DRB5*0101, DRB1*1501, DRB1*1101, DRB1*0802, DRB1*1302); assay: DR supertype cross-reactive binding; set-up: species or system human; settings: number of the 8 DR alleles bound
READOUT NAME: Broad Binding (5/8)
The answer should be written as a number, with no unit following it.

Recorded Broad Binding (5/8), per entry:
>>> recorded_result("CC[C@H](C)[C@H](NC(=O)[C@H](CCSC)NC(=O)[C@H](Cc1ccc(O)cc1)NC(=O)[C@@H](NC(=O)[C@H](CC(=O)O)NC(=O)[C@@H](NC(=O)[C@@H](NC(=O)[C@H](CS)NC(=O)[C@@H](NC(=O)[C@@H]1CCCN1C(=O)[C@@H]1CCCN1C(=O)[C@@H](N)CCC(N)=O)[C@@H](C)CC)[C@@H](C)O)[C@@H](C)CC)C(C)C)C(=O)N[C@@H](CCSC)C(=O)N[C@H](C(=O)N[C@@H](CCCCN)C(=O)O)C(C)C")
3
>>> recorded_result("CC[C@H](C)[C@H](NC(=O)CNC(=O)[C@@H](NC(=O)[C@@H](NC(=O)[C@H](C)NC(=O)[C@H](CO)NC(=O)[C@@H](NC(=O)[C@@H](NC(=O)[C@H](CO)NC(=O)[C@@H](NC(=O)[C@H](CC(C)C)NC(=O)[C@@H]1CCCN1C(=O)[C@H](CO)NC(=O)[C@H](C)N)[C@@H](C)O)[C@@H](C)CC)[C@@H](C)CC)C(C)C)C(C)C)C(=O)N[C@@H](CC(C)C)C(=O)O")
4
>>> recorded_result("CC[C@H](C)[C@H](NC(=O)[C@H](CCC(N)=O)NC(=O)[C@H](CCSC)NC(=O)[C@H](CS)NC(=O)[C@H](Cc1c[nH]c2ccccc12)NC(=O)[C@H](CC(N)=O)NC(=O)[C@H](CC(C)C)NC(=O)[C@@H](N)CC(C)C)C(=O)N[C@@H](C)C(=O)N[C@@H](CCCCN)C(=O)NCC(=O)N[C@@H](CCSC)C(=O)N[C@@H](CO)C(=O)N[C@@H](Cc1ccc(O)cc1)C(=O)N[C@@H](CC(C)C)C(=O)O")
6

// below: Broad Binding (5/8) requested for another molecule
### Prompt Respond only with Broad Binding (5/8) recorded for `CC[C@H](C)[C@H](NC(=O)CNC(=O)[C@H](CC(=O)O)NC(=O)[C@H](Cc1ccc(O)cc1)NC(=O)[C@@H]1CCCN1C(=O)[C@H](CCCCN)NC(=O)[C@H](C)NC(=O)CNC(=O)[C@H](Cc1ccccc1)NC(=O)[C@@H](NC(=O)[C@H](CCSC)NC(=O)[C@H](CC(C)C)NC(=O)[C@H](CCC(=O)O)NC(=O)[C@H](Cc1c[nH]c2ccccc12)NC(=O)[C@@H](N)C(C)C)[C@@H](C)O)C(=O)O`
### Response 5
